Experiment: Pharmacokinetic test in dogs
Type: in vivo, male beagles
Settings: male, beagle, dog, plasma, IV 1 mg/kg
Procedure: Test objective: the pharmacokinetic characteristics and bioavailability of test compounds in dogs were evaluated. Test animals: twelve male beagles, 8-10 kg, 0.5-1.5 years old, purchased from Beijing Marshall Biotechnology Co. Ltd., with the production license number of SCXK (JING) 2016-001. Vehicle for intravenous administration: 5% DMSO+5% Solutol+90% Saline; • vehicle for intragastric administration: 1% DMSO+1% Solutol+98% (0.5% MC); […]
test readout: half-life (h)

>>> observed_measurement("[2H]C([2H])([2H])N(c1nc(-c2ccc(F)cc2)c(C#N)s1)c1c(CC)nn2cc(F)c(N3CCN(CC(=O)N4CC(O)C4)CC3)cc12")
6.96
